The measurements presented in this section are drawn from patent US20210380703A1.

TARGET_DESC: mouse ACVR2A (mouse, UniProt P27038 20-135, limits assumed); further: test concentration or dose not given here
Sequence (P27038 20-135 limits assumed): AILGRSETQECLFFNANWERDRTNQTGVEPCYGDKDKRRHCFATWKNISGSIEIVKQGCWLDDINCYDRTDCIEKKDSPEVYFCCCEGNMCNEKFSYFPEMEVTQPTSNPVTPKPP
EXPERIMENT_SUMMARY: ELISA
MEASURE: optical density (OD)
One number for each entry, in OD.

BINDER: 374_B02 (antibody, V domains shown, Group I) VH: EVQLLESGGGLVQPGGSLRLSCAASGFTFDSYSMHWVRQAPGKGLEWVAGINYNSGYTSYADSVKGRFTISRDNSKNTLYLQMNSLRAEDTAVYYCARAANWHDTHLDYWGQGTLVTVSS VL: DIQMTQSPSSLSASVGDRVTITCRASQSIISYLNWYQQKPGKAPKLLIYAATSRASGVPSRFSGSGSGTDFTLTISSLQPEDFATYYCQQSYDSPLTFGGGTKVEIK
RESULT_NUMBER: 3.54
//
BINDER: 371_B02 (antibody, V domains shown, Group II) VH: EVQLLESGGGLVQPGGSLRLSCAASGFTFDSYGMNWVRQAPGKGLEWVSNINYNGGYTSYADSVKGRFTISRDNSKNTLYLQMNSLRAEDTAVYYCARAATWHDTHLDYWGQGTLVTVSS VL: DIQMTQSPSSLSASVGDRVTITCRASQSILTYVNWYQQKPGKAPKLVIYAATSLASGVPSRFSGSGSGTDFTLTISSLQPEDFATYYCQQSYNNPLTFGGGTKVEIK
RESULT_NUMBER: 2.28
//
BINDER: 370_B07 (antibody, V domains shown, Group II) VH: EVQLLESGGGLVQPGGSLRLSCAASGFTFSSYGMHWVRQAPGKGLEWVANINYNSGYKSYADSVKGRFTISRDNSKNTLYLQMNSLRAEDTAVYYCARAATWHDTHLDYWGQGTLVTVSS VL: DIQMTQSPSSLSASVGDRVTITCRASQSILTYVNWYQQKPGKAPKLLIYAATSRHSGVPSRFSGSGSGTDFTLTISSLQPEDFATYYCQQSYSSPLTFGGGTKVEIK
RESULT_NUMBER: 2.2
//
BINDER: 370_E12 (antibody, V domains shown, Group II) VH: EVQLLESGGGLVQPGGSLRLSCAASGFTFDSYGMHWVRQAPGKGLEWVAGINYNGGYTSYADSVKGRFTISRDNSKNTLYLQMNSLRAEDTAVYYCARAATWHDTHLDYWGQGTLVTVSS VL: DIQMTQSPSSLSASVGDRVTITCRASQSILSYVNWYQQKPGKAPKLLIYAATSRASGVPSRFSGSGSGTDFTLTISSLQPEDFATYYCQQSYENPLTFGGGTKVEIK
RESULT_NUMBER: 3.44

In the following, a different binder is considered.
Query string: Quick check: optical density of 366_B07 (antibody, V domains shown, Group III) VH: EVQLLESGGGLVQPGGSLRLSCAASGFTFSDYGMNWVRQAPGKGLEWVSGINYNGGYTSYADSVKGRFTISRDNSKNTLYLQMNSLRAEDTAVYYCARGANWHDTHLDYWGQGTLVTVSS VL: DIQMTQSPSSLSASVGDRVTITCRASQSIVSYLNWYQQKPGKAPKLVIYATTSRASGVPSRFSGSGSGTDFTLTISSLQPEDFATYYCQQSYNSPLTFGGGTKVEIK ?
Result string: 1.92
